Source of measurements: paper PMC11115230

Target: T1, DNTTIP1 (TdIF1), His-tagged (human, UniProt Q9H147 1-329)
T1 sequence: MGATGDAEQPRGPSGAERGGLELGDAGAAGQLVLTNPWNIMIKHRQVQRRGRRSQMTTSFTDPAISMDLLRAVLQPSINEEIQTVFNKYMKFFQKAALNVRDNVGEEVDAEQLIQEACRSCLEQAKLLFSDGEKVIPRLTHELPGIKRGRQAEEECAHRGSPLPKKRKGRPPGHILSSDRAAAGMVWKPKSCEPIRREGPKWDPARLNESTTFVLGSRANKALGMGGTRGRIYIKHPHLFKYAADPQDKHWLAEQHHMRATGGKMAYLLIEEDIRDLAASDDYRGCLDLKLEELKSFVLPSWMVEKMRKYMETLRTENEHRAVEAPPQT
Assay: equimolar DNA; Tm 32.7 to 43.5 C; unit inferred, M assumed; Anisotropy: 15 nM DNA, 10 mM Na-PO4 pH 6.5, 150 mM KCl, 250 uM TCEP, 5% glycerol. Pull-down: 20 mM HEPES pH 7.9, 100 mM KCl, 10% glycerol, 0.05% CHAPS, poly(dIdC), oligo B, acetylated BSA, room temperature
Details: protein: recombinant; tags: N-term 6xHis; chain copies: 2; label: fluorescein on first T of sense strand (anisotropy only); blunt
pKd: −log10 of the molar value.

>  <BINDER>
TASHET_25 wt (dsDNA) DNA 1: AGATGCTGCATATAAGCAGCTGCTT DNA 2: AAGCAGCTGCTTATATGCAGCATCT

>  <pKd>
~9.41

$$$$
